biological target: GST-RIPK2 fusion protein (human RIPK2 amino acids 1-310) (Homo sapiens (Human), UniProt O43353); experiment: RIPK2 binding competition assay (TR-FRET, Tracer 199)
Sequence (O43353 1-310): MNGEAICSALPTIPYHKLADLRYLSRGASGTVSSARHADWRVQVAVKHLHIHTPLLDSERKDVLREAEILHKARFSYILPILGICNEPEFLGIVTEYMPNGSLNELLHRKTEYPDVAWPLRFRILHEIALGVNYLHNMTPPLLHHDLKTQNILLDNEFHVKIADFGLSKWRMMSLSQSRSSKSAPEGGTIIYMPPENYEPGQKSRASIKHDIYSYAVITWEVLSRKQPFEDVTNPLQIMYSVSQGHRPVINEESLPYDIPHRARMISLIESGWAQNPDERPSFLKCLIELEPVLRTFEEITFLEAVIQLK
pIC50: −log10 of the molar value.
value-type: pIC50

// below: answered compounds
- compound: "COc1cc2ncc(-c3cc(F)nc(N[C@H]4CC[C@@H](O)CC4)c3)n2cc1S(=O)(=O)C(C)(C)C"
  result: "8.60 to 9.00"
- compound: "CCCS(=O)(=O)Nc1cc(-c2cnc3cc(OC)c(S(=O)(=O)C(C)(C)C)cn23)cc(F)c1OC(F)F"
  result: "8.60 to 9.00"
- compound: "COc1cc2ncc(-c3cccc(NS(=O)(=O)C(C)C)c3)n2cc1S(=O)(=O)C(C)(C)C"
  result: "7.70 to 8.60"

// each listed compound needs a value for pIC50
1. COc1cc2ncc(-c3cc(F)nc(N[C@@H]4CCC[C@@H](O)C4)c3)n2cc1S(=O)(=O)C(C)(C)C (racemic)
2. COc1cc2ncc(-c3cc(N)c(OC)c(OC)c3)n2cc1S(=O)(=O)C(C)(C)C
3. COc1cc2ncc(-c3cc(C)c(OC)c(NCCCO)c3)n2cc1S(=O)(=O)C(C)(C)C
4. CCOc1cc2ncc(-c3cc(F)c(N)nc3F)n2cc1S(=O)(=O)C(C)C

["8.60 to 9.00", "7.70 to 8.60", "7.70 to 8.60", "7.70 to 8.60"]

====

biological target: GST-RIPK2 fusion protein (human RIPK2 amino acids 1-310) (Homo sapiens (Human)); experiment: RIPK2 binding competition assay (TR-FRET, Tracer 199); conditions: read-out: RIPK2 IC50; RIPK2 binding competition assay
value-type: IC50

Sample answers from the record:
- structure-as-smiles: "CCCS(=O)(=O)Nc1cc(-c2cnc3cc(OC)c(S(=O)(=O)C(C)(C)C)cn23)cc(OC)c1OC"
  result: "< 1 nM"
- structure-as-smiles: "COc1cc2ncc(-c3cc(F)nc(NCCC4(O)CCC4)c3)n2cc1S(=O)(=O)C(C)(C)C"
  result: "< 1 nM"
- structure-as-smiles: "CCCS(=O)(=O)Nc1cncc(-c2cnc3cc(OC)c(S(=O)(=O)C(C)(C)C)cn23)c1"
  result: "> 20 nM"

Now, please, on to the next molecule.
IC50 lookup needed for CCCS(=O)(=O)Nc1cc(OC)cc(-c2cnc3cc(OC)c(S(=O)(=O)C(C)(C)C)cn23)c1 , thanks.
< 1 nM

====

target: GST-RIPK2 fusion protein (human RIPK2 amino acids 1-310) (Homo sapiens (Human)); experiment: RIPK2 binding competition assay (TR-FRET, Tracer 199); details: read-out: RIPK2 IC50; RIPK2 binding competition assay
pIC50: −log10 of the molar value.
Exercise: state measured pIC50 for each of the compounds provided.

Worked cases, answers included:
- compound: "COc1cc2ncc(-c3cc(N)c(=O)n(C(F)F)c3)n2cc1S(=O)(=O)C(C)(C)C"
  experimental-target: "GST-RIPK2 fusion protein (human RIPK2 amino acids 1-310) (Homo sapiens (Human))"
  result: "< 7.70"
- compound: "COc1cc2ncc(-c3cnc(OC)c(N)c3)n2cc1S(=O)(=O)C(C)(C)C"
  experimental-target: "GST-RIPK2 fusion protein (human RIPK2 amino acids 1-310) (Homo sapiens (Human))"
  result: "< 7.70"
- compound: "COc1cc2ncc(-c3cc(F)nc(NCCS(C)(=N)=O)c3)n2cc1S(=O)(=O)C(C)(C)C (centres unmarked)"
  experimental-target: "GST-RIPK2 fusion protein (human RIPK2 amino acids 1-310) (Homo sapiens (Human))"
  result: "7.70 to 8.60"

Take each entry in turn and give its pIC50.
1. COc1cc2ncc(-c3cc(N)c(OC)c(C#N)c3)n2cc1S(=O)(=O)C(C)(C)C
2. COc1cc2ncc(-c3cc(F)c(N)nc3F)n2cc1S(=O)(=O)C(C)(C)CF
3. COc1ccn2c(-c3cc(F)nc(F)c3)cnc2c1

1: < 7.70; 2: < 7.70; 3: < 7.70
